Molecular target: UniProtKB Q9NYW3
Sequence (Q9NYW3 whole entry): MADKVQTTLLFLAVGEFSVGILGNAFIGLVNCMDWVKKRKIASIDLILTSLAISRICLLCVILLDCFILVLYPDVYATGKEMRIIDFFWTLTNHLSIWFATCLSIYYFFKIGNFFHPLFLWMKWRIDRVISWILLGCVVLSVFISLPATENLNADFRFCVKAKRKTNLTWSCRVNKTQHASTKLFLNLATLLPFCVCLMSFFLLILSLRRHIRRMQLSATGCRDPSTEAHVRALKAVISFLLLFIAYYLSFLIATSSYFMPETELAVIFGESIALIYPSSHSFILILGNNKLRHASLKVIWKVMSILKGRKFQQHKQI
Assay: hT2R panel inhibition, transient HEK293 G16g44, agonist Chloroquine pH6.5 10 mM
Assay type: cell-based
Conditions: HEK293, compound at 25 μM; receptor activated to EC80 with the corresponding agonist; read-out: screening result against bitter receptor 7
molecules and their reported inhibition at 25 µM
READOUT: inhibition at 25 µM

COc1ccc(CN(Cc2cccc(Cl)c2)S(=O)(=O)c2ccc(C(=O)O)cc2)cc1 | 60 to 80%
O=C(O)c1ccc(CN(Cc2cccc(F)c2)S(=O)(=O)c2ccccc2)cc1 | 40 to 60%
COc1ccc(CN(Cc2ccoc2)S(=O)(=O)c2ccc(C(=O)O)cc2)cc1 | 20 to 40%
COc1ccc(CN(Cc2ccccc2)S(=O)(=O)c2ccc(-c3nn[nH]n3)cc2)cc1 | 20 to 40%
Cc1ccc(CN(Cc2ccccc2)S(=O)(=O)c2ccc(C(=O)O)cc2)cc1 | 20 to 40%
COc1cc(OC)c(CN(Cc2ccccc2)S(=O)(=O)c2ccc(C(=O)O)cc2)c(OC)c1 | 20 to 40%
COc1ccc(CN(CC2CCCCC2)S(=O)(=O)c2ccc(C(=O)O)cc2)cc1 | 40 to 60%
Cc1ccc(S(=O)(=O)N(Cc2ccc(F)cc2)CC2CCC(C(=O)O)CC2)cc1 (stereo not drawn) | 20 to 40%
COc1ccc(CN(C(C)c2ccccc2)S(=O)(=O)c2ccc(C(=O)O)cc2)cc1 (stereo not drawn) | 20 to 40%
COc1cccc(CN(Cc2ccc(C(=O)O)cc2)S(=O)(=O)c2ccccc2)c1 | 60 to 80%
O=C(O)c1ccc(S(=O)(=O)N(Cc2ccccc2)Cc2ccc(O)cc2)cc1 | 20 to 40%
O=C(O)c1ccc(S(=O)(=O)N(Cc2ccccc2)Cc2ccccc2Cl)cc1 | 20 to 40%

* * *

Target: hT2R8 (Homo sapiens (Human))
Sequence (Q9NYW2 whole entry): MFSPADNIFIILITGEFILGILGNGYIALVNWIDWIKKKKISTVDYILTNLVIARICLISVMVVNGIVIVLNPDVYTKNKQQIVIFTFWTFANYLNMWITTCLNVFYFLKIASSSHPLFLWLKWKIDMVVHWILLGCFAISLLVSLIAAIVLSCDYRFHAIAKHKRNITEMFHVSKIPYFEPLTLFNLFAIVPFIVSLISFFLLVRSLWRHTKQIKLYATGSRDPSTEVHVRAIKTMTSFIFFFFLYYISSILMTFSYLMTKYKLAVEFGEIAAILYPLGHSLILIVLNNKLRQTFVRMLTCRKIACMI
Assay: hT2R8 antagonist high-throughput FLIPR assay, stable cell line with G16g44, agonist andrographolide
Assay type: cell-based
Conditions: table after Example 12-37; read-out: hT2R8 IC50
pIC50: −log10 of the molar value.
compounds and their reported pIC50
READOUT: pIC50

Cc1ccc(CN2C(=O)N(c3cnn(Cc4c(C)noc4C)c3)C(=O)C2(C)C)c(C)c1 | 5.72
Cc1noc(C)c1Cn1cc(N2C(=O)N(Cc3ccc(CO)cc3)C(C)(C)C2=O)cn1 | 6.44
Cc1noc(C)c1Cn1cc(N2C(=O)N(Cc3cccc(O)n3)C(C)(C)C2=O)cn1 | 6.36
Cc1noc(C)c1Cn1cc(N2C(=O)N(Cc3cccc(C(=O)O)c3)C(C)(C)C2=O)cn1 | 6.34
COCCOc1cccc(CN2C(=O)N(c3cnn(Cc4c(C)noc4C)c3)C(=O)C2(C)C)c1 | 6.15
Cc1noc(C)c1Cn1cc(N2C(=O)N(Cc3ccccc3C(=O)O)C(C)(C)C2=O)cn1 | 5.37
Cc1noc(C)c1Cn1cc(N2C(=O)N(CCc3ccccc3)C(C)(C)C2=O)cn1 | 6.64
Cc1noc(C)c1Cn1cc(N2C(=O)N(Cc3ccccc3O)C(C)(C)C2=O)cn1 | 7.15
Cc1ccc(CN2C(=O)N(c3cnn(Cc4c(C)noc4C)c3)C(=O)C2(C)C)cc1C | 5.91
Cc1noc(C)c1Cn1cc(N2C(=O)N(CCc3cc(F)cc(F)c3)C(C)(C)C2=O)cn1 | 6.40

Reference source for all entries: patent US9247759B2
